# Tested on: NCI-H322M lung
# TEST SUMMARY: NCI-60 one-dose screen, 48 h
# COND: 10 µM unless noted
About 83,000 compounds went through this panel and 20% of them were active in at least one assay; those are over-represented in the sample as a whole. Active and inactive are the calls of the source. How the source made its calls: active means growth percent below 10; inactive means the rest.
API: response.call in True for active, False for inactive

Example entries and their recorded answers appear below.
COc1ccc2c(c1)c1nc3cc(C)c(C)cc3nc1n2CCN(C)C True
C=C(C)[C@@H]1CC[C@]2(/C=N/Nc3ccncc3)CC[C@]3(C)[C@H](CC[C@@H]4[C@@]5(C)CCCNC(C)(C)[C@@H]5CC[C@]43C)[C@@H]12 False
Cn1cc(-c2nc(-c3c[nH]c4ncccc34)cs2)c2cc(F)ccc21 False
COc1cc(-c2cc3ncccc3c3[nH]c(=O)c4cccnc4c23)cc(OC)c1OC False
CC1(C)C=CC[C@]2(C)[C@H]3CC[C@@H]4[C@H]5[C@H](C(=O)/C=C/c6cccnc6)CC[C@]5(CO)CC[C@@]4(C)[C@]3(C)CC[C@@H]12 True

# evaluate next
Prompt: What classification did COc1ccc(C2=NN(c3nc(-c4ccc(OC)cc4)c(C#N)c(=O)n3C)C(=O)CC2)cc1 end up with in this test?
Response: False
